These data points were gathered from paper PMC9352680.

Molecular target: T1, PUF4 RNA-binding domain (Saccharomyces cerevisiae, UniProt P25339 537-888)
T1 sequence: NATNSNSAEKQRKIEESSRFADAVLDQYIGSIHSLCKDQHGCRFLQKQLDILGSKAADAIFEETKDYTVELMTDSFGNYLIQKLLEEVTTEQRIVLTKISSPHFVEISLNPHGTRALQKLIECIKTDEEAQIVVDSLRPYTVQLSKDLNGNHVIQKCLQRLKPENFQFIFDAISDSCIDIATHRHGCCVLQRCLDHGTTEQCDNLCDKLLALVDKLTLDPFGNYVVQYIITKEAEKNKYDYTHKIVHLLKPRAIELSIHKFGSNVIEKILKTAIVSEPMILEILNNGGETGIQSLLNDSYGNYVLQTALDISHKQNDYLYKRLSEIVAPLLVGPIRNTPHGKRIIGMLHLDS
Assay: Mg; RNA-MaP; 20 mM Na-HEPES pH 7.4, 30 mM KOAc, 0.75 mM MgCl2, 0.1% Tween-20, 5% glycerol, 0.1 mg/mL BSA, 2 mM DTT; 25 C; 0.0125-409.6 nM protein
Details: tags: N-His6-TEV cleaved; C-SNAP kept, Cy3B-labelled; label: tethered on chip by stalled RNA polymerase
experimentalReadout: Kd

[[record]]
binder = "UCUCUUUAUAUAUUAUUAACUCUCUU (ssRNA) [Id_ii_S1_P5E.3_K5.2_C5.2_[C-2T]_[T-1A]_H5.2_A5.1_F5.1_T5.2_[T11A]_[A12C]]"
experimentalreadout = "Kd"
result = "15.9 nM"

[[record]]
binder = "UCUCUUUAUAGUAUUAUCUCUU (ssRNA) [Ib_S1_P5E.1_K5.1_C5.1_H5.1_[G2A]_A5.1_[T5G]_F5.1_T5.1]"
experimentalreadout = "Kd"
result = "1360 nM"

[[record]]
binder = "Ie_S2_P5E.1_K5.1_C5.1_H5.1_A5.1_[+7CC]_F5.1_T5.1 (ssRNA) RNA: UUUGAUUAAUAUGAUAUCGUUCUUUCUUGUAUUACCUUAUUCUUUCUCGAUAUCAUAUUAAUCUUU"
experimentalreadout = "Kd"
result = "58.9 nM"

[[record]]
binder = "Ic_S2_P5E.1_K5.1_C5.1_H5.1_A5.1_[T5C]_[A7C]_F5.1_[T8C]_[T9C]_[A10T]_T5.1 (ssRNA) RNA: UUUGAUUAAUAUGAUAUCGUUCUUUCUUGUACUCCCUUUCUUUCUCGAUAUCAUAUUAAUCUUU"
experimentalreadout = "Kd"
result = "104 nM"

[[record]]
binder = "UCUCUUUGUACAAUUUCUCUU (ssRNA) [Ic_S1_P4E.1_K4.1_C4.1_H4.1_A4.1_[T5C]_[T7A]_F4.1_[A9T]_T4.1]"
experimentalreadout = "Kd"
result = "11.2 nM"

[[record]]
binder = "ACAAACCAACACUAUUAACACAAAC (ssRNA) [Id_ii_S3_P4E.4_K4.3_C4.2_[T-1A]_H4.3_A4.1_F4.1_T4.2_[G10A]_[T11C]]"
experimentalreadout = "Kd"
result = "> 2300 nM"

